# system_name: IgE of patient serum 3
# assay: ELISA inhibition, serum 3 pre-incubated with 1.25 µg/ml inhibitor; competitor: wt Mal d 1 adsorbed on wells
endpoint: % inhibition of Mal d 1-IgE binding (%)

binder	data_value
mutant Bet v 1-Mal d 1 hybrid molecule (SEQ ID NO: 4) (protein) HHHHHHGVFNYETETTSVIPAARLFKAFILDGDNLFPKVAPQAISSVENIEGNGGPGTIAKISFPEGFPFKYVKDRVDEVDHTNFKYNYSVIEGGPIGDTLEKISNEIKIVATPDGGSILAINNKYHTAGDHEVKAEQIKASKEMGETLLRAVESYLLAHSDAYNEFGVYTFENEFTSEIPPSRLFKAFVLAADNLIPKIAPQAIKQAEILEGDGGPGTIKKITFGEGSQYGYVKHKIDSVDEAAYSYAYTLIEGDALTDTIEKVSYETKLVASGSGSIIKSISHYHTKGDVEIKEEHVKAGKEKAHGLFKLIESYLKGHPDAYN	66.3
wild-type Bet v 1-Mal d 1 hybrid molecule (SEQ ID NO: 3) (protein) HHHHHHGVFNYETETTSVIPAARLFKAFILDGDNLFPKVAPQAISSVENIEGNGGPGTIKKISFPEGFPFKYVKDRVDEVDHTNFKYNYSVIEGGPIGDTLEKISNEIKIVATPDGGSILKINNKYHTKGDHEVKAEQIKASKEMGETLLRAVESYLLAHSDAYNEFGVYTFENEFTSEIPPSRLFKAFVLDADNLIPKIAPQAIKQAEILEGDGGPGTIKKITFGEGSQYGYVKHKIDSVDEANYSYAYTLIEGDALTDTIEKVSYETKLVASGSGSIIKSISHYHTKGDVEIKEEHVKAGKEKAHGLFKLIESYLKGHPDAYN	75.1
mixture of the single wt allergens (wt Bet v 1 and wt Mal d 1) (protein) chain 1: HHHHHHGVFNYETETTSVIPAARLFKAFILDGDNLFPKVAPQAISSVENIEGNGGPGTIKKISFPEGFPFKYVKDRVDEVDHTNFKYNYSVIEGGPIGDTLEKISNEIKIVATPDGGSILKINNKYHTKGDHEVKAEQIKASKEMGETLLRAVESYLLAHSDAYN chain 2: HHHHHHGVYTFENEFTSEIPPSRLFKAFVLDADNLIPKIAPQAIKQAEILEGDGGPGTIKKITFGEGSQYGYVKHKIDSVDEANYSYAYTLIEGDALTDTIEKVSYETKLVASGSGSIIKSISHYHTKGDVEIKEEHVKAGKEKAHGLFKLIESYLKGHPDAYN	80.5
mixture of the two mutagenised allergens (mut Bet v 1-SEQ ID NO:6 and mut Mal d 1-SEQ ID NO:2) (protein) chain 1: HHHHHHGVFNYETETTSVIPAARLFKAFILDGDNLFPKVAPQAISSVENIEGNGGPGTIAKISFPEGFPFKYVKDRVDEVDHTNFKYNYSVIEGGPIGDTLEKISNEIKIVATPDGGSILAINNKYHTAGDHEVKAEQIKASKEMGETLLRAVESYLLAHSDAYN chain 2: HHHHHHGVYTFENEFTSEIPPSRLFKAFVLAADNLIPKIAPQAIKQAEILEGDGGPGTIKKITFGEGSQYGYVKHKIDSVDEAAYSYAYTLIEGDALTDTIEKVSYETKLVASGSGSIIKSISHYHTKGDVEIKEEHVKAGKEKAHGLFKLIESYLKGHPDAYN	49
